B1: Osa-1-4 twister ribozyme (parent)
chain: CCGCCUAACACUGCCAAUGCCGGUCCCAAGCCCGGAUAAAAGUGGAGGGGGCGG

Variants of: B1
test description: self-cleavage, relative activity (ratio to wild type); higher = more cleavage; co-transcriptional
readout label: self-cleavage
// return just the number, without any unit appended

A10U C15G = 0.03
C21U C33U = 0.47

Data request: Please look at this variant and report its self-cleavage: C11G U37A
Data returned: 0.38

Data request: Please look at this variant and report its self-cleavage: A29G U43G
Data returned: 0.06

Data request: Please look at this variant and report its self-cleavage: G23C G48C
Data returned: 0.02

Data request: Please look at this variant and report its self-cleavage: C11G G30C
Data returned: 0.04

Data request: Please look at this variant and report its self-cleavage: A46U A8G
Data returned: 0.08
